Biological target: McinOBP4-Wt (Macrocentrus cingulum, UniProt A0A1S6PU99)
Sequence (A0A1S6PU99 entry or part of it): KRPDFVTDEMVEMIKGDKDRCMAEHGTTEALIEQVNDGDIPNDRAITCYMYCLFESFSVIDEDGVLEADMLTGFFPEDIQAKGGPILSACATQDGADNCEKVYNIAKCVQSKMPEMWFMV
Experiment: Competitive binding assay with 1-NPN as fluorescent reporter, McinOBP4-Wt
Details: recombinant McinOBP4-Wt, pH = 7.4, calculated from IC50; read-out: KD
Protocol: One cm light path fluorimeter quartz cuvette was used on a FluoroMax-4 (Horiba Scientific, USA) spectrophotometer at room temperature for fluorescence spectra recording and excitation wavelength of 337 nm was chosen and 300–500 nm for the emission with a 5 nm slit width. Spectra were recorded with 2 μM McinOBP4 in 50 mM Tris-HCl of different pH value, while ligands were added as 1 mM methanol solutions. The probe was excited at 337 nm and emission spectra were recorded between 300 and 500 nm. […]
Kd: recorded values
Report as a plain number; the unit µM is understood.

CCCCCCCCC=O [Nonanal]
12.5
CCCCCCC=O [Heptanal]
13
CCCCC/C=C/C=O [Trans-2-Octenal]
11.9

Please examine the following record next.
*Q* Give its Kd value. Item: CCCCCC/C=C/C=O [Trans-2-Nonenal]
*A* 12.8
